Catalogue of molecules with associated Activity
# System: Eimeria mitis
# ASSAY_METHOD_TEXT: Anticoccidial activity against Eimeria mitis in chickens assessed as reduction of oocysts at 25 ppm measured after 8 days by ExMAC assay relative to untreated control
# Format: functional
# Parameters: scale not given: the % may be the effect or the level left
The figure you give is taken to be in %; do not add the unit.

Below are worked cases with known answers.
MOLECULE	MEASURED_METRIC	EXPERIMENTAL_VALUE
CN(C)CCCc1ccn2c(-c3ccnc(N)n3)c(-c3ccc(F)cc3)nc2c1	Activity	80
CN(C)Cc1ccn2c(-c3ccnc(N)n3)c(-c3ccc(F)cc3)nc2c1	Activity	80
CN(C)CC(C)(C)c1ccn2c(-c3ccnc(N)n3)c(-c3ccc(F)cc3)nc2c1	Activity	80
CN(C)CC(F)c1ccn2c(-c3ccnc(N)n3)c(-c3ccc(F)cc3)nc2c1 (stereo not drawn)	Activity	100
CCN1CCC(c2ccn3c(-c4ccnc(N)n4)c(-c4ccc(F)cc4)nc3c2)CC1	Activity	100
CN1CCN(c2ccn3c(-c4ccnc(N)n4)c(-c4ccc(F)cc4)nc3c2)CC1	Activity	80
CC(C)(CN)c1ccn2c(-c3ccnc(N)n3)c(-c3ccc(F)cc3)nc2c1	Activity	50
CN1CCN(Cc2ccn3c(-c4ccnc(N)n4)c(-c4ccc(F)cc4)nc3c2)CC1	Activity	80

QUERY: May I ask what Activity has been recorded for CCN(CC)Cc1ccn2c(-c3ccnc(N)n3)c(-c3ccc(F)cc3)nc2c1 ?
RESULT: 80

QUERY: Given CN1CCC(c2ccn3c(-c4ccnc(N)n4)c(-c4ccc(F)cc4)nc3c2)CC1 , state its recorded Activity.
RESULT: 100

QUERY: Quick check: Activity of CN(C)CCc1ccn2c(-c3ccnc(N)n3)c(-c3ccc(F)cc3)nc2c1 ?
RESULT: 100

QUERY: Would you mind telling me what Activity value was observed for Nc1nccc(-c2c(-c3ccc(F)cc3)nc3cc(C4CCN(CC5CC5)CC4)ccn23)n1 ?
RESULT: 80

QUERY: Which Activity value is on record for CC(C)CN1CCC(c2ccn3c(-c4ccnc(N)n4)c(-c4ccc(F)cc4)nc3c2)CC1 ?
RESULT: 80

QUERY: What does the data say about its Activity? Entry: CCCC(c1ccn2c(-c3ccnc(N)n3)c(-c3ccc(F)cc3)nc2c1)N(C)C (stereo not drawn)
RESULT: 100

====

# Test system: Eimeria maxima
# ASSAY_METHOD_TEXT: Anticoccidial activity against Eimeria maxima in chickens assessed as reduction of oocysts at 6.25 ppm measured after 8 days by ExMAC assay relative to untreated control
# Format: functional
# Set-up: scale not given: the % may be the effect or the level left
MEASURED_METRIC: Activity

COMPOUND	Activity
Nc1nccc(-c2c(-c3ccc(F)cc3)nc3cc(C4CCN(CCO)CC4)ccn23)n1	<50%
CN(C)CC(F)c1ccn2c(-c3ccnc(N)n3)c(-c3ccc(F)cc3)nc2c1 (stereo not given)	100%
CN(C)CCCc1ccn2c(-c3ccnc(N)n3)c(-c3ccc(F)cc3)nc2c1	<50%

QUERY: Name the recorded Activity for CN(C)Cc1ccn2c(-c3ccnc(N)n3)c(-c3ccc(F)cc3)nc2c1 .
RESULT: <50%

QUERY: Record request: Activity value, item CN(C)C(C)(C)c1ccn2c(-c3ccnc(N)n3)c(-c3ccc(F)cc3)nc2c1
RESULT: 80%
